- experimentDescription: Stability evaluation: odor of sample solution after storage at 50° C. for 1 month
- statedConditions: 5% by weight sample solution, sealed, 50° C., 1 month; odor, average of 5 panelists (3: no degradation odor, 1: strong degradation odor)
readout: Stability

| molecule | assayResult |
| --- | --- |
| O=C([O-])CC[C@H](NCC(O)CO)C(=O)[O-].[Na+].[Na+] (stereo partly drawn) [Glyceryl derivative of glutamic acid, sodium N-glycerylglutamate] | ◯ |
| O=C(O)[C@H](Cc1ccccc1)NCC(O)CO (stereo partly drawn) | ◯ |
| N[C@@H](Cc1ccccc1)C(=O)O | Δ |
| Cl.N=C(N)NCCC[C@H](N)C(=O)O [Arginine hydrochloride] | ◯ |
| Cl.N=C(N)NCCC[C@H](NCC(O)CO)C(=O)O (stereo partly drawn) [Glyceryl derivative of arginine, N-glycerylarginine hydrochloride] | ⊚ |
| N[C@@H](CC(=O)[O-])C(=O)[O-].O.[Na+].[Na+] [Sodium aspartate hydrate] | Δ |

**Query** What value of Stability has been reported for the following molecule? CC(C)C[C@H](N)C(=O)O
**Result** Δ

**Query** What measured Stability goes with OCC(O)CO ?
**Result** ◯

**Query** Which Stability is listed for O=C(O)[C@H](CO)NCC(O)CO (stereo partly drawn) ?
**Result** ◯
